Test: Plasma PK of ixazomib given with lenalidomide–dexamethasone, phase 1 study in East Asian patients with RRMM (LC/MS/MS, non-compartmental analysis)
Assay type: in vivo, human
Conditions: human, plasma, po, cycle 1 day 1; Overall; geometric mean (% CV); 4.0 mg oral + lenalidomide–dexamethasone
value.kind: Cmax (ng/mL)
The figure you give is taken to be in ng/mL; do not add the unit.

Query string: What measured Cmax goes with CC(C)C[C@H](NC(=O)CNC(=O)c1cc(Cl)ccc1Cl)B(O)O ?
Result string: 33.8

====

Experiment: Plasma PK of ixazomib given with lenalidomide–dexamethasone, phase 1 study in East Asian patients with RRMM (LC/MS/MS, non-compartmental analysis)
Assay type: in vivo, human
Conditions: human, plasma, po, cycle 1 day 15; Overall; median (range); 4.0 mg oral + lenalidomide–dexamethasone; read-out: T max
value.kind: Tmax (h)
The figure you give is taken to be in h; do not add the unit.

Query string: What measured Tmax goes with CC(C)C[C@H](NC(=O)CNC(=O)c1cc(Cl)ccc1Cl)B(O)O ?
Result string: 2

====

Test: Plasma PK of ixazomib given with lenalidomide–dexamethasone, phase 1 study in East Asian patients with RRMM (LC/MS/MS, non-compartmental analysis)
Type: in vivo, human
Settings: human, plasma, po, cycle 1 day 1; Chinese; median (range); 4.0 mg oral + lenalidomide–dexamethasone; read-out: T max
value.kind: Tmax (h)
The figure you give is taken to be in h; do not add the unit.

Query string: What measured Tmax goes with CC(C)C[C@H](NC(=O)CNC(=O)c1cc(Cl)ccc1Cl)B(O)O [ixazomib] ?
Result string: 1.04

====

Test: Plasma PK of ixazomib given with lenalidomide–dexamethasone, phase 1 study in East Asian patients with RRMM (LC/MS/MS, non-compartmental analysis)
Type: in vivo, human
Settings: human, plasma, po, cycle 1 day 15; Korean; median (range); 4.0 mg oral + lenalidomide–dexamethasone; read-out: T max
value.kind: Tmax (h)
The figure you give is taken to be in h; do not add the unit.

Query string: What measured Tmax goes with CC(C)C[C@H](NC(=O)CNC(=O)c1cc(Cl)ccc1Cl)B(O)O ?
Result string: 2

====

Experiment: Plasma PK of ixazomib given with lenalidomide–dexamethasone, phase 1 study in East Asian patients with RRMM (LC/MS/MS, non-compartmental analysis)
Type: in vivo, human
Details: human, plasma, po, cycle 1 day 15; Other; geometric mean (% CV); 4.0 mg oral + lenalidomide–dexamethasone
value.kind: Cmax (ng/mL)
The figure you give is taken to be in ng/mL; do not add the unit.

Query string: What measured Cmax goes with CC(C)C[C@H](NC(=O)CNC(=O)c1cc(Cl)ccc1Cl)B(O)O ?
Result string: 42.4

====

Assay: Plasma PK of ixazomib given with lenalidomide–dexamethasone, phase 1 study in East Asian patients with RRMM (LC/MS/MS, non-compartmental analysis)
Assay type: in vivo, human
Conditions: human, plasma, po, cycle 1 day 15; Chinese; median (range); 4.0 mg oral + lenalidomide–dexamethasone; read-out: T max
Protocol: Plasma PK parameters were calculated for patients in the safety population following administration of ixazomib on cycle 1 day 1 and/or cycle 1 day 15 provided sufficient concentration–time data were available, the patient had received the protocol-specified ixazomib dosing regimen during cycle 1, and no excluded concomitant medications were received during the PK sampling period. […]
value.kind: Tmax (h)
The figure you give is taken to be in h; do not add the unit.

Query string: What measured Tmax goes with CC(C)C[C@H](NC(=O)CNC(=O)c1cc(Cl)ccc1Cl)B(O)O [ixazomib] ?
Result string: 2

Source listed as paper PMC4559079.
